STUDY_SYSTEM: UniProtKB P30989
Sequence (P30989 whole entry, looked up): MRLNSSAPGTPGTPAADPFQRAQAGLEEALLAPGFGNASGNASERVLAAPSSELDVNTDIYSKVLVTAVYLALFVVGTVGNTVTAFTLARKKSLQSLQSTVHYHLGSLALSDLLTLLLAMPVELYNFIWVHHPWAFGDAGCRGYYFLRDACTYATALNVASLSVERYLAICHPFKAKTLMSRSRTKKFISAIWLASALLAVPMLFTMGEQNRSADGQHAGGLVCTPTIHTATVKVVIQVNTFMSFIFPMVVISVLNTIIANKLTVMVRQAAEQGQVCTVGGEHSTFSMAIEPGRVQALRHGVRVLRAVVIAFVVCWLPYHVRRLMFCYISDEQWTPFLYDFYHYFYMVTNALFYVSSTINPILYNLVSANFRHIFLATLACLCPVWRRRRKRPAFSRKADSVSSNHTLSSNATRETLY
METHOD: NTR1 agonists in analog series, SAR follow-up, imaging, image-based, set 3 (AID 602356)
SETUP_CONDITIONS: NTR1 image-based agonist assay, cellular imaging
Calls of active or inactive are those of the source. No rule for the calls is given here.
PROPERTY_MEASURED: EC50

>>> val("Cc1ccc(-c2nnc3c4cc5c(cc4n(Cc4ccccc4)cc2-3)OCO5)cc1")
"inactive"
>>> val("CCOc1cc2c(N3CCN(c4ccccc4OC)CC3)nc(-c3ccc(OC)c(OC)c3)nc2cc1OC")
"> 80 µM (inactive)"
>>> val("COc1ccc(-c2nnc3c4ccccc4n(CC4CC4)cc2-3)cc1")
"inactive"
>>> val("COc1cc2c3nnc(-c4ccc(C)c(C)c4)c-3cn(Cc3ccc(F)cc3)c2cc1OC")
"16.2 µM"
>>> val("COc1ccc2c(c1)c1nnc(-c3ccc(F)cc3)c-1cn2Cc1ccc(F)cc1")
"13.9 µM"
>>> val("COc1cc2nc(C3CCC3)nc(N3CCN(c4ccccn4)CC3)c2cc1OC")
"inactive"

I am curious: what EC50 value has been reported for CC(C)C[C@H](NC(=O)c1cn(-c2ccnc3ccccc23)c(-c2ccccc2)n1)C(=O)O ?
> 80 µM (inactive)

Then this molecule: COc1cc2nc(C3CC3)nc(N3CCN(C(=O)OC(C)(C)C)CC3)c2cc1OC
inactive

Do the same for CCCc1nc(N2CCN(c3ccccc3OC)CC2)c2cc(OC)c(OC)cc2n1 please
16.6 µM

Can you check COc1cc2nc(C3CCC3)nc(N3CCN(c4ccccc4F)CC3)c2cc1OC next?
17.7 µM

Now give it for CCn1cc2c(-c3ccc(F)cc3)nnc-2c2cc(OC)c(OC)cc21 too.
> 80 µM (inactive)

Request: C=Cc1nc(N2CCN(c3ccccc3OC)CC2)c2cc(OC)c(OC)cc2n1
7.03 µM

Now the molecule COc1ccc(-c2nnc3c4cc(OC)c(OC)cc4n(Cc4ccc(F)cc4)cc2-3)cc1
> 80 µM (inactive)

Queued: COc1cccc(OC)c1-c1cc(C(=O)N[C@@H](CC(C)C)C(=O)O)nn1-c1ccnc2cc(Cl)ccc12
0.232 µM

COc1cc2c3nnc(-c4ccc(C)cc4)c-3cn(Cc3ccc(F)cc3)c2cc1OC ?
6.4 µM

Can you check COc1cc2c3nnc(-c4ccc(Cl)cc4)c-3cn(Cc3ccccc3)c2cc1OC next?
4.15 µM

====

STUDY_SYSTEM: Neurotensin receptor type 1 (Homo sapiens)
METHOD: NTR1 agonists in analog series, SAR follow-up, imaging, image-based, set 3 (AID 602356)
SETUP_CONDITIONS: NTR1 image-based agonist assay, cellular imaging
Activity calls are given as the source filed them. The rule behind the calls is not given here.
Just give me one of these, please: active, inactive

Example results:
>>> label_class("COc1ccc(-c2nnc3c4ccccc4n(Cc4ccc(F)cc4)cc2-3)cc1")
"inactive"
>>> label_class("COc1cc2c3nnc(-c4ccc(C)cc4)c-3cn(Cc3ccc(C)cc3)c2cc1OC")
"active"
>>> label_class("COc1cccc(OC)c1-c1nc(C(=O)N[C@H](CC(C)C)C(=O)O)cn1-c1ccnc2cc(Cl)ccc12")
"active"

Alright, here's another compound for you.
Which outcome was entered for the compound COc1cc2c3nnc(-c4ccc(F)cc4)c-3cn(CCc3ccccc3)c2cc1OC in this test?
inactive
